All values here come from paper PMC5540273.

- Tested on: CHEK1;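 further: KINOMEscan kinase panel screen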
- condition_notes: concentration: 1 μM, replicates: in singlicate; n = 1
%Inh values by entry
property_name: %Inh

>>> value_reported("Cn1cc(-c2cnc(N)c3c(-c4ccc5c(c4)CCN5C(=O)Cc4ccccc4)csc23)cn1 [GSK2593074]")
"9%"
>>> value_reported("O=C(O)C(F)(F)F.O=c1[nH]ccc2nc(N[C@@H]3CCNC3)nc(Nc3cc(Cl)cc(Cl)c3)c12 [GSK2188764]")
"100%"
>>> value_reported("CS(=O)(=O)c1cccc(CNc2nc(Nc3ccc4c(c3)CCC(=O)N4)ncc2C(F)(F)F)c1")
"0%"
>>> value_reported("Cc1ccc(C)c(NC(=O)Nc2ccc(C)c(-c3ccc(C(=O)Nc4ccncc4)cc3)c2)c1 [GSK1398473]")
"22%"
